molecular target: JAK2/JAK2 homdimeric complex (Homo sapiens (Human)); assay: GM-CSF Induced pSTAT5 in Human PBMC; conditions: GM-CSF 5 ng/mL for 20 minutes, pSTAT5 by MSD, read-out: PBMC_GMCSF_pSTAT5 IC50
Sequence (O60674 whole entry): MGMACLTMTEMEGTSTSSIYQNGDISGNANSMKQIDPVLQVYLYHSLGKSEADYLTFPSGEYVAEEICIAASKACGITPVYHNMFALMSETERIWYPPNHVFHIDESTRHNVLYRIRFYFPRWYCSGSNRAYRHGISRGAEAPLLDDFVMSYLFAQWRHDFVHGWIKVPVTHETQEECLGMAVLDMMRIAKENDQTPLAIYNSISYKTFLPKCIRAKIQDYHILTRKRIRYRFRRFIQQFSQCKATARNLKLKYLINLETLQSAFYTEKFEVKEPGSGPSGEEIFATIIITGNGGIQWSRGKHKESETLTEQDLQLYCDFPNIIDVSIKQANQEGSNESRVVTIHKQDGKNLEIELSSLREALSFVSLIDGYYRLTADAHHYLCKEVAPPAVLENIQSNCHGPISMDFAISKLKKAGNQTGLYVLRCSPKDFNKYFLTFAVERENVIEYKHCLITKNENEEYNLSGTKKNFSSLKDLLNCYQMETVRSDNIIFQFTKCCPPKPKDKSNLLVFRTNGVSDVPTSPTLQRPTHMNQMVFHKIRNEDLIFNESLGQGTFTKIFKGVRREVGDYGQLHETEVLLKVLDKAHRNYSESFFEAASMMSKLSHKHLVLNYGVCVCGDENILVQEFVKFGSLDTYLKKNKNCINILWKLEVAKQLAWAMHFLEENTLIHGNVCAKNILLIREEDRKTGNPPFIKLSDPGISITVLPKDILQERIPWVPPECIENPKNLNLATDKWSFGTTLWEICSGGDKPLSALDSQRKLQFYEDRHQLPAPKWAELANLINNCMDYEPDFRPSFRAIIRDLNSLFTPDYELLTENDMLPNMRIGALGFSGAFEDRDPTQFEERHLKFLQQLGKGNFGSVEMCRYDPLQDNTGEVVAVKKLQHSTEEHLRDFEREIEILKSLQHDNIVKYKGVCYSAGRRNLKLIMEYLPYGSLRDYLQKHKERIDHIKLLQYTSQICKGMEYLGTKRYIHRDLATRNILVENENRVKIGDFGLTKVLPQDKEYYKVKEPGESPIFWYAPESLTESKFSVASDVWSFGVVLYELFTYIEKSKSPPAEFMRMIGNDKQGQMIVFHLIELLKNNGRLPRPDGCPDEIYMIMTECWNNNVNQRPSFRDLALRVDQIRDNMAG
Sequence (P32927 17-897 partner): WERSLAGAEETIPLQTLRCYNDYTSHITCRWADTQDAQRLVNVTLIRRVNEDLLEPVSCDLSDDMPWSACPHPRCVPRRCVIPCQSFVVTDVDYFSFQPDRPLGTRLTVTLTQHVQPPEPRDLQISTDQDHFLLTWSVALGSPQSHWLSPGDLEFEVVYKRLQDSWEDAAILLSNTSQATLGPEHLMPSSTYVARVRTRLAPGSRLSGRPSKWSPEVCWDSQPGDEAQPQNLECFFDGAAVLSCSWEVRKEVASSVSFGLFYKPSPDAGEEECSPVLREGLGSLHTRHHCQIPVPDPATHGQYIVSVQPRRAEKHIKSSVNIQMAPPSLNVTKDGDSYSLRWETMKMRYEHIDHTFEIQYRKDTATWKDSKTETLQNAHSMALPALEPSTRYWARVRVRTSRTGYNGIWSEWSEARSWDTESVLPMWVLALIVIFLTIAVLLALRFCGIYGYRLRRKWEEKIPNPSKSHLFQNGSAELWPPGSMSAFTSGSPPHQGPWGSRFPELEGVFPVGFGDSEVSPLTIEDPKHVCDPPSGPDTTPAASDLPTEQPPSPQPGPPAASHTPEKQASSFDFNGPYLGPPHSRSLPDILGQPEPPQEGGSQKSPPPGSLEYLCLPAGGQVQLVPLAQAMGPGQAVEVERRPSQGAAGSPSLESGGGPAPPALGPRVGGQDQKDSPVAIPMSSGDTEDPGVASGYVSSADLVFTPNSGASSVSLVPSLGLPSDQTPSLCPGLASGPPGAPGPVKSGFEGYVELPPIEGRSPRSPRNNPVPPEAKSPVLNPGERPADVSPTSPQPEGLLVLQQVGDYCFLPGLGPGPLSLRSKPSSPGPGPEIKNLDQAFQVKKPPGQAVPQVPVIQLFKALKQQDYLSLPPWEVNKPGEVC
pIC50: −log10 of the molar value.
Entries and their pIC50 values follow.

Example entries begin here.
{"columns": ["Molecule", "Assay value"],
 "data": [
  ["CNc1cc(Nc2cccnc2OC2CC2)nc2c(C(=O)N[C@@H]3CC[C@@H]3O)cnn12", "< 4.90"],
  ["CNc1cc(Nc2cccn([C@H]3CC[C@@H]3O)c2=O)nc2c(C(=O)N[C@H]3CC[C@@H]3OC)cnn12", "< 4.30"],
  ["CNc1cc(Nc2cc(F)cnc2OC2CC2)nc2c(C(=O)NC3CCC3)cnn12", "< 4.30"]
]}

Consider now this further molecule.
Given item CNc1cc(-c2cn(C3CC3)c3ncccc23)nc2c(C(=O)N[C@@H]3C[C@@H]3F)cnn12 , the value recorded as its pIC50 is < 4.30

---

Entries and their inhibition at 10 µM values follow.
target: JAK2 kinase domain (JH1) (Homo sapiens (Human)); assay: JAK2 Radioactive Kinase Assay; type: biochemical; conditions: compound at 10 μM; ATP 10 μM; read-out: JAK2 JH1% Inhibition @ 10 μM
Sequence (O60674 849-1124): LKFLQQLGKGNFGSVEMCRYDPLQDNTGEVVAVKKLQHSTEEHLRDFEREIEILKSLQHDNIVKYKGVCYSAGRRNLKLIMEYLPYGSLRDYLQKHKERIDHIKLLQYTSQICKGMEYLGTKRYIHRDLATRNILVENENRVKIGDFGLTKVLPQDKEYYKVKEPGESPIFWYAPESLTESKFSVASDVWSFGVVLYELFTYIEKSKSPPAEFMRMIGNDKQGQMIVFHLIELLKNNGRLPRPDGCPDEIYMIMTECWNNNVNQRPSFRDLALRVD

{"columns": ["Compound", "inhibition at 10 µM"],
 "data": [
  ["CNc1cc(Nc2cc(F)cc(F)c2F)nc2c(C(=O)NC3CC3)cnn12 [I-5]", "< 50%"],
  ["CNc1cc(Nc2cc(Cl)cn(C3CCOCC3)c2=O)nc2c(C(=O)N[C@@H]3CC[C@@H]3O)cnn12 [I-713]", "< 50%"],
  ["CNc1cc(Nc2cc(F)cn(C3CCN(C)CC3)c2=O)nc2c(C(=O)NC3CC3)cnn12 [I-625]", "< 50%"]
]}

Consider now this further compound.
Given item CNc1cc(Nc2cc(F)cn(C3CCN(C)CC3)c2=O)nc2c(C(=O)N[C@H]3C[C@H]3F)cnn12 [I-626] , the value recorded as its inhibition at 10 µM is < 50%

---

target: human TYK2 (JH2domain-pseudokinase) (Homo sapiens (Human), UniProt P29597); assay: TYK2 JH2 Domain Binding Assay (KINOMEscan)
Sequence (P29597 556-888): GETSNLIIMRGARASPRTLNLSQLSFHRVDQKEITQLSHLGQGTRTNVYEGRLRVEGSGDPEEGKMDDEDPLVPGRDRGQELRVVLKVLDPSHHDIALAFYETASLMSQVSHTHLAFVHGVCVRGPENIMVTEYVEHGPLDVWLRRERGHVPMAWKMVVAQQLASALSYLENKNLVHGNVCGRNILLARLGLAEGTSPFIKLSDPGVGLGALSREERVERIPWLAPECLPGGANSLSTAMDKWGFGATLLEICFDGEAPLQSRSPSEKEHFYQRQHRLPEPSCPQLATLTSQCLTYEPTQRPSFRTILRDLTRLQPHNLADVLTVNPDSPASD
pKd: −log10 of the molar value.
Entries and their pKd values follow.

Example entries begin here.
{"columns": ["Compound", "pKd"],
 "data": [
  ["CNc1cc(Nc2cccn(-c3ccc(F)cc3)c2=O)nc2c(C(=O)NC3COC3)cnn12 [I-109]", "< 8.00"],
  ["CNc1cc(-c2cn(C3CCOCC3)c3ncccc23)nc2c(C(=O)N[C@H]3CCCC[C@]3(C)O)cnn12 [I-1273]", "< 8.00"]
]}

Given item CNc1cc(-c2cn(CCN3CCN(C)CC3)c3ncccc23)nc2c(C(=O)N[C@@H]3CC[C@H]3O)cnn12 [I-921] , the value recorded as its pKd is 9.00 to 9.70

Given item CNc1cc(Nc2cccn([C@H]3CC[C@H](O)CC3)c2=O)nc2c(C(=O)NC3CC3)cnn12 [I-167] , the value recorded as its pKd is > 9.70

Given item CNc1cc(Nc2cc(Cl)cn(-c3ccc(C)nn3)c2=O)nc2c(C(=O)N[C@H]3C[C@H]3F)cnn12 [I-164] , the value recorded as its pKd is > 9.70

Given item CNc1cc(Nc2cccn([C@H]3CC[C@@H](OC)CC3)c2=O)nc2c(C(=O)N[C@H]3CC[C@@H]3O)cnn12 [I-1291] , the value recorded as its pKd is 8.00 to 9.00

Given item CNc1cc(Nc2cccn(C3CC(F)(F)C3)c2=O)nc2c(C(=O)N[C@@H]3CC[C@@H]3O)cnn12 [I-1391] , the value recorded as its pKd is > 9.70

---

biological target: human TYK2 (JH2domain-pseudokinase) (Homo sapiens (Human)); experiment: TYK2 JH2 Domain Binding Assay (KINOMEscan)
Measure name: Kd

{"columns": ["Compound", "Assay value"],
 "data": [
  ["CNc1cc(Nc2cccn(-c3ccccn3)c2=O)nc2c(C(=O)NCC3(CO)CC3)cnn12 [I-684]", "0.2 to 1 nM"]
]}

Given item CNc1cc(Nc2cccn(-c3oc(C)nc3C)c2=O)nc2c(C(=O)N[C@@H]3C[C@@H]3F)cnn12 [I-938] , the value recorded as its Kd is 0.2 to 1 nM

Given item CNc1cc(Nc2cccn(-c3cnn(C[C@@H]4CCOC4)c3)c2=O)nc2c(C(=O)NC3CC3)cnn12 [I-600] , the value recorded as its Kd is < 0.2 nM

Given item CNc1cc(Nc2cc(C)cn(-c3cnn(C)c3)c2=O)nc2c(C(N)=O)cnn12 [I-31] , the value recorded as its Kd is < 0.2 nM

Given item CNc1cc(Nc2cccnc2OC)nc2c(C(=O)N[C@H]3CC[C@@H]3O)cnn12 [I-395] , the value recorded as its Kd is < 0.2 nM

Given item CNc1cc(Nc2cccn(C3CCOCC3)c2=O)nc2c(C(=O)N[C@@H]3CC[C@@H](OC)C3)cnn12 (stereo in doubt) [I-1334] , the value recorded as its Kd is < 0.2 nM

Given item CNc1cc(Nc2cccn(C3CCOCC3)c2=O)nc2c(C(=O)N[C@@H]3CC[C@H](O)C3)cnn12 [I-1264] , the value recorded as its Kd is 1 to 10 nM

Given item CNc1cc(Nc2cc(Cl)cn(-c3ccn(C)n3)c2=O)nc2c(C(=O)NC3CC3)cnn12 [I-310] , the value recorded as its Kd is < 0.2 nM

---

target: human TYK2 (JH2domain-pseudokinase) (Homo sapiens (Human)); assay: TYK2 JH2 Domain Binding Assay (KINOMEscan)
pKd: −log10 of the molar value.
Measure name: pKd

{"columns": ["Molecule", "pKd"],
 "data": [
  ["CNc1cc(Nc2cccn(-c3cncc(C)c3)c2=O)nc2c(C(=O)N[C@H]3C[C@H]3F)cnn12", "> 9.70"],
  ["CNc1cc(Nc2cccn([C@H]3CCC[C@H](OC)C3)c2=O)nc2c(C(=O)N[C@H]3CC[C@@H]3OC)cnn12 [I-1375]", "8.00 to 9.00"],
  ["CNc1cc(Nc2cccn([C@H]3CC[C@](C)(O)CC3)c2=O)nc2c(C(=O)NC3CC3)cnn12", "> 9.70"]
]}

Entry CNC(=O)c1occc1Nc1cc(NC)n2ncc(C(=O)N[C@@H]3C[C@@H]3F)c2n1 : pKd on human TYK2 (JH2domain-pseudokinase) (Homo sapiens (Human)) = > 9.70

---

target: JAK2/JAK2 homdimeric complex (Homo sapiens (Human)); assay: GM-CSF Induced pSTAT5 in Human PBMC; details: GM-CSF 5 ng/mL for 20 minutes, pSTAT5 by MSD, read-out: PBMC_GMCSF_pSTAT5 IC50
Measure name: IC50

Example entries begin here.
{"columns": ["Mol smiles", "Assay value"],
 "data": [
  ["CNc1cc(Nc2cccn(-c3cccnc3)c2=O)nc2c(C(=O)N[C@@H]3C[C@@H]3F)cnn12", "> 2.5 µM"],
  ["CNc1cc(Nc2cc(Cl)cn(-c3cnc(C(=O)N(C)C)cn3)c2=O)nc2c(C(=O)NC3CC3)cnn12", "> 2.5 µM"],
  ["CNc1cc(-c2cn(C3CC3)c3ncccc23)nc2c(C(=O)N[C@H]3CC[C@H]3O)cnn12", "> 50 µM"],
  ["CNc1cc(Nc2cc(F)cnc2OC(C)C)nc2c(C(=O)N[C@H]3C[C@H]3F)cnn12", "> 50 µM"],
  ["CNc1cc(Nc2cccc(N3CCCC3=O)n2)nc2c(C(=O)NC3CC3)cnn12", "> 12.5 µM"],
  ["CNc1cc(Nc2cccn(-c3nc(C)co3)c2=O)nc2c(C(=O)NC3CC3)cnn12", "> 12.5 µM"]
]}

Given item CNc1cc(Nc2cccn(-c3ccc(N4CCOCC4)cn3)c2=O)nc2c(C(=O)NC3CCC3)cnn12 , the value recorded as its IC50 is > 2.5 µM

Given item CNc1cc(Nc2cc(C)cn(-c3cnn(C)c3)c2=O)nc2c(C(=O)N[C@H]3C[C@H]3F)cnn12 , the value recorded as its IC50 is > 2.5 µM

---

Entries and their Kd values follow.
target: human TYK2 (JH2domain-pseudokinase) (Homo sapiens (Human), UniProt P29597); experiment: TYK2 JH2 Domain Binding Assay (KINOMEscan)

Example entries begin here.
{"columns": ["Compound", "Kd"],
 "data": [
  ["CNc1cc(Nc2cccn([C@H]3C[C@@H]3OC)c2=O)nc2c(C(=O)NC3CC3)cnn12 [I-1228]", "1 to 10 nM"],
  ["CNc1cc(Nc2cccnc2OC)nc2c(C(=O)NCCC3CCCO3)cnn12 (stereo not drawn)", "1 to 10 nM"],
  ["CNc1cc(Nc2cccn(-c3ncc(C)s3)c2=O)nc2c(C(=O)N[C@H]3C[C@H]3F)cnn12", "< 0.2 nM"],
  ["CNc1cc(Nc2cccn([C@H]3CCN(CCF)C3)c2=O)nc2c(C(=O)N[C@@H]3CC[C@H]3OC)cnn12", "< 0.2 nM"]
]}

Given item CNc1cc(-c2cn(C3CC3)c3ncccc23)nc2c(C(=O)N[C@@H]3CC[C@@H]3O)cnn12 , the value recorded as its Kd is 0.2 to 1 nM

Given item CNc1cc(Nc2cccn(C3CCCOC3)c2=O)nc2c(C(=O)NCC(C)(C)CO)cnn12 (stereo not drawn) , the value recorded as its Kd is < 0.2 nM

Given item Cc1cc(Nc2cc(N)n3ncc(C(N)=O)c3n2)c(=O)n(-c2cnn(C)c2)n1 , the value recorded as its Kd is 0.2 to 1 nM

Given item CNc1cc(Nc2cccn([C@@H]3CCCN(C)C3)c2=O)nc2c(C(=O)NC3CC3)cnn12 , the value recorded as its Kd is < 0.2 nM

Given item CNc1cc(Nc2cccnc2OC)nc2c(-c3cn(C(C)C)nn3)cnn12 , the value recorded as its Kd is < 0.2 nM

Given item CNc1cc(Nc2cccn([C@H]3CCCOC3)c2=O)nc2c(C(=O)N[C@H]3COC[C@H]3O)cnn12 [I-784] , the value recorded as its Kd is > 10 nM
